Biological target: recombinant 11β-HSD1 enzyme (Homo sapiens (Human), UniProt P28845)
Sequence (P28845 whole entry): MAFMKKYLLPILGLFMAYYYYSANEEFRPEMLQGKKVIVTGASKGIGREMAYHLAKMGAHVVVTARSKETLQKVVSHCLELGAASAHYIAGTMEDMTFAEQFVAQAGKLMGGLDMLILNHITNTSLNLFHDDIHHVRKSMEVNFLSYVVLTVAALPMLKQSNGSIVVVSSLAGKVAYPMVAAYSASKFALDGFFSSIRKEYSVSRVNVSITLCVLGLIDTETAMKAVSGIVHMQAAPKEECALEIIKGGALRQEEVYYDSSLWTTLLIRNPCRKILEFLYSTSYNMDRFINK
Assay: 11β-HSD1 oxidase activity (HTRF Cortisol Kit)
Assay type: biochemical
Conditions: remaining activity at 100 nM compound
Listed here are compounds together with their documented 11b-HSD1 oxidase (activ rem %) 100 nM.
Please give a number only; it is taken to be in %.

Observe how each entry below is paired with its result.
- compound: "c1ccc(CCc2nc(C34CC5CC(CC(C5)C3)C4)no2)cc1 [BD-31]"
  assayResult: 86.1
- compound: "Cc1ccc(CCc2nc(C34CC5CC(CC(C5)C3)C4)no2)cc1 [BD-36]"
  assayResult: 110.3
- compound: "c1cc(CCc2nc(C34CC5CC(CC(C5)C3)C4)no2)ccn1 [BD-39]"
  assayResult: 89.4
- compound: "O=[N+]([O-])c1ccc(CCc2nc(C34CC5CC(CC(C5)C3)C4)no2)cc1 [BD-46]"
  assayResult: 104.6
- compound: "COc1cccc(CCc2nc(C34CC5CC(CC(C5)C3)C4)no2)c1 [BD-38]"
  assayResult: 88.1

For c1ccc(CCc2nc(C34CC5CC(CC(C5)C3)C4)no2)nc1 [BD-45] the compound record lists 11b-HSD1 oxidase (activ rem %) 100 nM as 97.4

For Fc1cccc(CCc2nc(C34CC5CC(CC(C5)C3)C4)no2)c1 [BD-42] the compound record lists 11b-HSD1 oxidase (activ rem %) 100 nM as 83.0

For CC(C)(C)c1ccc(CCc2nc(C34CC5CC(CC(C5)C3)C4)no2)cc1 [BD-41] the compound record lists 11b-HSD1 oxidase (activ rem %) 100 nM as 85.9

Values were extracted from patent US12304894B2.
